Can you tell me Ki for the items I'm about to list?
# SYSTEM_NAME: Progesterone receptor (Homo sapiens, UniProt P06401)
# Sequence (P06401 whole entry): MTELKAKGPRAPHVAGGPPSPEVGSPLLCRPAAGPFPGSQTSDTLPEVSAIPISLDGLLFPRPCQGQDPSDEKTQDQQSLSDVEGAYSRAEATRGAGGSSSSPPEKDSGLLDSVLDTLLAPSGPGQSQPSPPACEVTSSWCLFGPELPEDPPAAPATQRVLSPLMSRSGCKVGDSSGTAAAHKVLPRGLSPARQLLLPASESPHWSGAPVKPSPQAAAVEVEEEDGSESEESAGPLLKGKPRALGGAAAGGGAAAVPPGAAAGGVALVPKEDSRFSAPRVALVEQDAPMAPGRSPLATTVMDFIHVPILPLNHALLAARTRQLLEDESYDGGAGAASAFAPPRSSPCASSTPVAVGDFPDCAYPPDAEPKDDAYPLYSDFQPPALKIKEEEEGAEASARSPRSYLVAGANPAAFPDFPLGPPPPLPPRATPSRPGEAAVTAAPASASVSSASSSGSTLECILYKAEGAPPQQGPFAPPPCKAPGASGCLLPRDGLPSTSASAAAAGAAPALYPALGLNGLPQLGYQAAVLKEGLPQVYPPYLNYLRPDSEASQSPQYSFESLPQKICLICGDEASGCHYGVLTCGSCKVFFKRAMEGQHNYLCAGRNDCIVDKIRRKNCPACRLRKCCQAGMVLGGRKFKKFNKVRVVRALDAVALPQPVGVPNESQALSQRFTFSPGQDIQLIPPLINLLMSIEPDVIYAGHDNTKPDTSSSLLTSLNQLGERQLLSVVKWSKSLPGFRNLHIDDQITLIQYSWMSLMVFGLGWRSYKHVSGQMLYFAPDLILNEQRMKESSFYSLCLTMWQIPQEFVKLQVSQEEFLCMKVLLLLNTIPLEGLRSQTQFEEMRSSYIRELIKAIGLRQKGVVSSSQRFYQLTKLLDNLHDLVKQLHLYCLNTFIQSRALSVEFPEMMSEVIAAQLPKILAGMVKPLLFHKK
Just the number in nM, nothing appended.

Test item `C[C@](c1ccc(F)cc1F)(c1c[nH]c2c(NS(C)(=O)=O)cccc12)C1CC1` ; Progesterone receptor (Homo sapiens, UniProt P06401); reported Ki was 1230

Test item `Cc1cc(-c2cn(C(C)C)c3cc(NS(C)(=O)=O)ccc23)ccc1C#N` ; Progesterone receptor (Homo sapiens, UniProt P06401); reported Ki was 0.298

Test item `Cn1cc(-c2ccc(C#N)cc2)c2ccc(NS(C)(=O)=O)cc21` ; Progesterone receptor (Homo sapiens, UniProt P06401); reported Ki was 28
